# Test system: SNB-19 CNS
# ASSAY METHOD TEXT: NCI-60 one-dose screen, 48 h (100 = growth as untreated, 0 = no growth, -100 = all killed)
# CONDITION SUMMARY: 10 µM unless noted
# Description: Growth inhibition of the SNB-19 human tumor cell line is measured as a screen for anti-cancer activity. Cells are grown in 96 well plates and exposed to the test compound for 48 hours. Compounds are tested at a single concentration, which is 10^-5 M for most compounds. The reported endpoint is percent growth (GI% or GIPRCNT), where numbers from 0 - 100% represent growth inhibition, and numbers from -100% - 0 represent cell death. For example, a value of 40 represents 60% growth inhibition. […]
The panel holds about 83,000 compounds, 20% with a hit somewhere; the sample as a whole holds those more often.
growth values for the molecules below.
Provide only the numeric value, understood in %.

// solved cases for growth follow
{"MOLECULE": "COc1ccc2sc(N(Cc3cccnc3)C(=O)c3ccc(C#N)cc3)nc2c1", "growth, %": 98.6}
{"MOLECULE": "COc1ccc(/C=c2\\sc3n(c2=O)NC2C(N=3)N(C)C(=O)N2C)cc1 (stereo not given)", "growth, %": 94.1}

Reported growth ( O=C(CN1C=NC2C(N3CCOCC3)=NC=NC21)c1cccc2ccccc12 (stereo not given) ) = 96.7

Reported growth ( O=c1oc2ccc(Cl)cc2c(=O)n1-c1ccc(F)cc1F ) = 13.6

---

# Test system: U251 CNS
# ASSAY METHOD TEXT: NCI-60 one-dose screen, 48 h
# CONDITION SUMMARY: 10 µM unless noted
This is part of a sample that, as a whole, favours compounds with a hit. Of some 83,000 tested, about 20% had one in any assay. Active and inactive are the calls of the source. How the source made its calls: active means growth percent below 10; inactive means the rest.
Bench note: report the call from active, inactive

Consider the following illustrative entries.
{"MOLECULE": "OC(CNC1CCCCC1)Cn1c2ccc(I)cc2c2cc(I)ccc21 (stereo unspecified)", "QUALITATIVE LABEL": "inactive"}
{"MOLECULE": "O=Cc1cc2ccccc2nc1Nc1nccs1", "QUALITATIVE LABEL": "inactive"}
{"MOLECULE": "CSc1nc2c(c(=O)[nH]1)N=C1c3ccccc3C(=O)C1C(c1ccc(F)cc1)N2 (stereo unspecified)", "QUALITATIVE LABEL": "inactive"}

Test call for this molecule, please: S=C1CCCC(=S)N1 inactive

Test call for this molecule, please: O=C1/C(=C/c2ccc(O)cc2)COc2ccc(O)c(O)c21 active

Test call for this molecule, please: Cc1ccc(N=NC2C(=O)N(c3ccc(Cl)cc3)N(c3ccc(Cl)cc3)C2=O)cc1 inactive

---

# Test system: CAKI-1 renal
# ASSAY METHOD TEXT: NCI-60 one-dose screen, 48 h (100 = growth as untreated, 0 = no growth, -100 = all killed)
# CONDITION SUMMARY: 10 µM unless noted
About 83,000 compounds went through this panel and 20% of them were active in at least one assay; those are over-represented in the sample as a whole.
Given measured growth, output YES if it is greater than or equal to 50% and NO if not.

Consider the following illustrative entries.
{"COMPOUND": "COc1ccccc1CNC(=O)C1c2ccccc2C(=O)N(CC(C)C)C1c1cccs1 (configuration not stated)", "TESTED TARGET": "CAKI-1 renal", "QUALITATIVE LABEL": "YES"}
{"COMPOUND": "Clc1ccc(Nc2nnc(-c3ccc4c(c3)OCO4)o2)cc1", "TESTED TARGET": "CAKI-1 renal", "QUALITATIVE LABEL": "YES"}
{"COMPOUND": "Clc1ccc(-c2nnc(COc3ccc(C4=NNC(c5ccco5)C4)cc3)o2)cc1 (configuration not stated)", "TESTED TARGET": "CAKI-1 renal", "QUALITATIVE LABEL": "YES"}
{"COMPOUND": "COc1ccc(/C=C2\\NC(=O)NC2=O)cc1O", "TESTED TARGET": "CAKI-1 renal", "QUALITATIVE LABEL": "YES"}
{"COMPOUND": "COc1ccc(-c2nocc2-c2cccs2)cc1", "TESTED TARGET": "CAKI-1 renal", "QUALITATIVE LABEL": "YES"}
{"COMPOUND": "O=[N+]([O-])c1cc2c(ccc3occc32)o1", "TESTED TARGET": "CAKI-1 renal", "QUALITATIVE LABEL": "NO"}
{"COMPOUND": "CC1=NCC2NC(=O)NC(C)=C12 (configuration not stated)", "TESTED TARGET": "CAKI-1 renal", "QUALITATIVE LABEL": "YES"}
{"COMPOUND": "Nc1ccn(C2O[C@H](CO)[C@@H](O)[C@H]2O)c(=O)n1 (some centres not stated)", "TESTED TARGET": "CAKI-1 renal", "QUALITATIVE LABEL": "YES"}

Record Cn1c2c(c(=O)[nH]c1=O)NC1=C(C(=O)c3ccccc31)C1(C=C(O)c3ccccc31)N2 (configuration not stated) ; criterion: growth no lower than 50%. Met? YES

Record C=C(C)CCC(C)N1CCC(N2CCC(C(=O)NCCc3ccccc3)CC2)CC1 (configuration not stated) ; criterion: growth no lower than 50%. Met? YES

Record O=c1oc2ccc(Cl)cc2c(=O)n1-c1cc(C(F)(F)F)cc(C(F)(F)F)c1 ; criterion: growth no lower than 50%. Met? NO

Record O=C(Cn1cc(COc2ncnc3c2cnn3-c2ccccc2)nn1)Nc1ccccn1 ; criterion: growth no lower than 50%. Met? YES

Record Nc1no[n+]([O-])c1-c1nnc2c(n1)-c1ccccc1C2=O ; criterion: growth no lower than 50%. Met? YES

Record CCOC(=O)C1(Cc2ccccc2)CCN(Cc2cccc(OC)c2O)CC1 ; criterion: growth no lower than 50%. Met? NO
